- Test system: Crude diglycosidase
- protocolDescription: Examination of substrate concentration in the conversion into isoflavone aglycons by diglycosidase using soybean materials;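 further: percent of the isoflavone family total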
- Assay type: biochemical, Penicillium multicolor IAM7153
- condition: concentrated soybean protein, substrate concentration 5%, heat treatment of enzyme no, reaction time 6 h
recordedEndpoint: Decomposition efficiency: ratio of each glycoside/aglycon within its isoflavone family (%)

moleculeSmiles	valueObserved
COc1cc2c(=O)c(-c3ccc(O)cc3)coc2cc1O	87.4
CC(=O)OC[C@H]1O[C@@H](Oc2ccc3c(=O)c(-c4ccc(O)cc4)coc3c2)[C@H](O)[C@@H](O)[C@@H]1O	12.0

----------
- System: Crude diglycosidase
- protocolDescription: Examination of pH in the conversion into isoflavone aglycons by diglycosidase using soybean materials
- Assay type: biochemical, Penicillium multicolor IAM7153
- condition: pH8.6; heat treatment of enzyme: no; reaction time 0 h
Decomposition efficiency of daidzin family in concentrated soybean protein: recorded values
recordedEndpoint: Decomposition efficiency of daidzin family in concentrated soybean protein (%)

moleculeSmiles	valueObserved
CC(=O)OC[C@H]1O[C@@H](Oc2ccc3c(=O)c(-c4ccc(O)cc4)coc3c2)[C@H](O)[C@@H](O)[C@@H]1O	40.7
O=c1c(-c2ccc(O)cc2)coc2cc(O)ccc12	3.2
O=c1c(-c2ccc(O)cc2)coc2cc(O[C@@H]3O[C@H](CO)[C@@H](O)[C@H](O)[C@H]3O)ccc12	56.1

----------
- System: Crude diglycosidase
- protocolDescription: Examination of substrate concentration in the conversion into isoflavone aglycons by diglycosidase using soybean materials;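 further: percent of the isoflavone family total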
- Format: biochemical, Penicillium multicolor IAM7153
- condition: concentrated soybean protein, substrate concentration 2%, heat treatment of enzyme no, reaction time 3 h
- Protocol: Into 20 mM acetate buffer of pH 4.0 was suspended 0.1 g, 0.25 g, 0.5 g, 1.0 g, or 1.5 g of each of various soybean materials (roasted soy flour (manufactured by Fuji Shokuryo K.K.), soymilk (manufactured by Gitoh Shokuhin K.K.), defatted soybean (manufactured by Fuji Seiyu K.K.), concentrated soybean protein (manufactured by Fuji Seiyu K.K.)). The pH of the suspension was measured and the liquid volume was adjusted to 4.5 mL while the pH was adjusted to 4.0 with 1N hydrochloric acid. […]
recordedEndpoint: Decomposition efficiency: ratio of each glycoside/aglycon within its isoflavone family (%)

moleculeSmiles	valueObserved
COc1cc2c(=O)c(-c3ccc(O)cc3)coc2cc1O[C@@H]1O[C@H](COC(C)=O)[C@@H](O)[C@H](O)[C@H]1O	5.3
CC(=O)OC[C@H]1O[C@@H](Oc2ccc3c(=O)c(-c4ccc(O)cc4)coc3c2)[C@H](O)[C@@H](O)[C@@H]1O	5.3
COc1cc2c(=O)c(-c3ccc(O)cc3)coc2cc1O[C@@H]1O[C@H](COC(=O)CC(=O)O)[C@@H](O)[C@H](O)[C@H]1O	0.2
CC(=O)OC[C@H]1O[C@@H](Oc2cc(O)c3c(=O)c(-c4ccc(O)cc4)coc3c2)[C@H](O)[C@@H](O)[C@@H]1O	8.3
COc1cc2c(=O)c(-c3ccc(O)cc3)coc2cc1O	94.4

----------
- Test system: Crude diglycosidase
- protocolDescription: Examination of temperature in the conversion into isoflavone aglycons by diglycosidase using soybean materials
- Type: biochemical, Penicillium multicolor IAM7153
- Set-up: concentration or dose not given beside the values
- condition: 65° C., heat treatment of enzyme yes, reaction time 6 h
recordedEndpoint: Decomposition efficiency of glycitin family in defatted soybean (%)

moleculeSmiles	valueObserved
COc1cc2c(=O)c(-c3ccc(O)cc3)coc2cc1O	51.2
COc1cc2c(=O)c(-c3ccc(O)cc3)coc2cc1O[C@@H]1O[C@H](COC(=O)CC(=O)O)[C@@H](O)[C@H](O)[C@H]1O	48.8

----------
Entries and their Decomposition efficiency of daidzin family in soymilk values follow.
- Tested on: Crude diglycosidase
- protocolDescription: Examination of temperature in the conversion into isoflavone aglycons by diglycosidase using soybean materials
- Assay type: biochemical, Penicillium multicolor IAM7153
- Design: concentration or dose not given beside the values
- condition: 80 °C; heat treatment of enzyme: no; 6 h
recordedEndpoint: Decomposition efficiency of daidzin family in soymilk (%)

compound	unitInfo	valueObserved
O=c1c(-c2ccc(O)cc2)coc2cc(O[C@@H]3O[C@H](CO)[C@@H](O)[C@H](O)[C@H]3O)ccc12 [daidzin]	%	42.9
O=C(O)CC(=O)OC[C@H]1O[C@@H](Oc2ccc3c(=O)c(-c4ccc(O)cc4)coc3c2)[C@H](O)[C@@H](O)[C@@H]1O [malonyldaidzin, 6″-O-malonyldaidzin]	%	23.0
O=c1c(-c2ccc(O)cc2)coc2cc(O)ccc12 [daidzein]	%	34.1

----------
- System: Crude diglycosidase
- protocolDescription: Examination of temperature in the conversion into isoflavone aglycons by diglycosidase using soybean materials
- Assay type: biochemical, Penicillium multicolor IAM7153
- Set-up: concentration or dose not given beside the values
- condition: 65 °C; heat treatment of enzyme: no; 3 h
recordedEndpoint: Decomposition efficiency of daidzin family in soymilk (%)

moleculeSmiles	valueObserved
O=C(O)CC(=O)OC[C@H]1O[C@@H](Oc2ccc3c(=O)c(-c4ccc(O)cc4)coc3c2)[C@H](O)[C@@H](O)[C@@H]1O	43.9
O=c1c(-c2ccc(O)cc2)coc2cc(O)ccc12	56.1

----------
- Test system: Crude diglycosidase
- protocolDescription: Examination of pH in the conversion into isoflavone aglycons by diglycosidase using soybean materials
- Format: biochemical, Penicillium multicolor IAM7153
- Parameters: concentration or dose not given beside the values
- condition: pH7.8; heat treatment of enzyme: no; reaction time 3 h
Listing of entries alongside the reported Decomposition efficiency of daidzin family in defatted soybean.
recordedEndpoint: Decomposition efficiency of daidzin family in defatted soybean (%)

moleculeSmiles	measuredTarget	unitInfo	valueObserved
O=c1c(-c2ccc(O)cc2)coc2cc(O)ccc12	Crude diglycosidase	%	48.4
O=C(O)CC(=O)OC[C@H]1O[C@@H](Oc2ccc3c(=O)c(-c4ccc(O)cc4)coc3c2)[C@H](O)[C@@H](O)[C@@H]1O	Crude diglycosidase	%	41.4
O=c1c(-c2ccc(O)cc2)coc2cc(O[C@@H]3O[C@H](CO)[C@@H](O)[C@H](O)[C@H]3O)ccc12	Crude diglycosidase	%	10.1

----------
- Tested on: Crude diglycosidase
- protocolDescription: Examination of substrate concentration in the conversion into isoflavone aglycons by diglycosidase using soybean materials;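 further: percent of the isoflavone family total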
- Type: biochemical, Penicillium multicolor IAM7153
- condition: roasted soy flour, substrate concentration 20%, heat treatment of enzyme no, reaction time 3 h
Measured Decomposition efficiency: ratio of each glycoside/aglycon within its isoflavone family accompanies every entry in the list below.
recordedEndpoint: Decomposition efficiency: ratio of each glycoside/aglycon within its isoflavone family (%)

compound	unitInfo	valueObserved
CC(=O)OC[C@H]1O[C@@H](Oc2ccc3c(=O)c(-c4ccc(O)cc4)coc3c2)[C@H](O)[C@@H](O)[C@@H]1O [acetyldaidzin, 6″-O-acetyldaidzin]	%	32.6
COc1cc2c(=O)c(-c3ccc(O)cc3)coc2cc1O [glycitein]	%	86.2

----------
- Tested on: Crude diglycosidase
- protocolDescription: Examination of pH in the conversion into isoflavone aglycons by diglycosidase using soybean materials
- Format: biochemical, Penicillium multicolor IAM7153
- condition: pH4.8; heat treatment of enzyme: no; reaction time 3 h
recordedEndpoint: Decomposition efficiency of glycitin family in defatted soybean (%)

moleculeSmiles	valueObserved
COc1cc2c(=O)c(-c3ccc(O)cc3)coc2cc1O	62.5
COc1cc2c(=O)c(-c3ccc(O)cc3)coc2cc1O[C@@H]1O[C@H](COC(=O)CC(=O)O)[C@@H](O)[C@H](O)[C@H]1O	37.5

----------
Quick reference for Decomposition efficiency of glycitin family in concentrated soybean protein among some molecules
- System: Crude diglycosidase
- protocolDescription: Examination of pH in the conversion into isoflavone aglycons by diglycosidase using soybean materials
- Assay type: biochemical, Penicillium multicolor IAM7153
- condition: pH3.7; heat treatment of enzyme: no; reaction time 3 h
- Protocol: A substrate solution of 450 μL was prepared by suspending 50 mg of each soybean material (roasted soy flour (manufactured by Fuji Shokuryo K.K.), soymilk (manufactured by Gitoh Shokuhin K.K.), defatted soybean (manufactured by Fuji Seiyu K.K.), concentrated soybean protein (manufactured by Fuji Seiyu K.K.)), and adjusting the pH to 2 to 11 with hydrochloric acid or sodium hydroxide. […]
recordedEndpoint: Decomposition efficiency of glycitin family in concentrated soybean protein (%)

molecule	unitInfo	valueObserved
COc1cc2c(=O)c(-c3ccc(O)cc3)coc2cc1O[C@@H]1O[C@H](COC(=O)CC(=O)O)[C@@H](O)[C@H](O)[C@H]1O [malonylglycitin, 6″-O-malonylglycitin]	%	0.4
COc1cc2c(=O)c(-c3ccc(O)cc3)coc2cc1O [glycitein]	%	73.5
COc1cc2c(=O)c(-c3ccc(O)cc3)coc2cc1O[C@@H]1O[C@H](COC(C)=O)[C@@H](O)[C@H](O)[C@H]1O [acetylglycitin, 6″-O-acetylglycitin]	%	26.1

----------
- Test system: Crude diglycosidase
- protocolDescription: Examination of temperature in the conversion into isoflavone aglycons by diglycosidase using soybean materials
- Assay type: biochemical, Penicillium multicolor IAM7153
- condition: 80 °C; heat treatment of enzyme: no; 0 h
- Experimental: Into 400 μL of 20 mM acetate buffer of pH 4.0 was suspended 50 mg of each of various soybean materials (roasted soy flour (manufactured by Fuji Shokuryo K.K.), soymilk (manufactured by Gitoh Shokuhin K.K.), defatted soybean (manufactured by Fuji Seiyu K.K.), concentrated soybean protein (manufactured by Fuji Seiyu K.K.)), whereby a substrate solution was prepared. Crude diglycosidase was diluted with 20 mM acetate buffer of pH 4.0 to be the glycosidase activity of 1.88 AU/mL. […]
Decomposition efficiency of glycitin family in concentrated soybean protein listing for selected molecules.
recordedEndpoint: Decomposition efficiency of glycitin family in concentrated soybean protein (%)

moleculeSmiles	valueObserved
COc1cc2c(=O)c(-c3ccc(O)cc3)coc2cc1O[C@@H]1O[C@H](COC(=O)CC(=O)O)[C@@H](O)[C@H](O)[C@H]1O	0.4
COc1cc2c(=O)c(-c3ccc(O)cc3)coc2cc1O[C@@H]1O[C@H](COC(C)=O)[C@@H](O)[C@H](O)[C@H]1O	35.9
COc1cc2c(=O)c(-c3ccc(O)cc3)coc2cc1O[C@@H]1O[C@H](CO)[C@@H](O)[C@H](O)[C@H]1O	52.3
COc1cc2c(=O)c(-c3ccc(O)cc3)coc2cc1O	11.4
